TARGET_ENTITY: Transient receptor potential cation channel subfamily V member 1 (Homo sapiens) (UniProt Q8NER1)
Sequence (Q8NER1 whole entry, looked up): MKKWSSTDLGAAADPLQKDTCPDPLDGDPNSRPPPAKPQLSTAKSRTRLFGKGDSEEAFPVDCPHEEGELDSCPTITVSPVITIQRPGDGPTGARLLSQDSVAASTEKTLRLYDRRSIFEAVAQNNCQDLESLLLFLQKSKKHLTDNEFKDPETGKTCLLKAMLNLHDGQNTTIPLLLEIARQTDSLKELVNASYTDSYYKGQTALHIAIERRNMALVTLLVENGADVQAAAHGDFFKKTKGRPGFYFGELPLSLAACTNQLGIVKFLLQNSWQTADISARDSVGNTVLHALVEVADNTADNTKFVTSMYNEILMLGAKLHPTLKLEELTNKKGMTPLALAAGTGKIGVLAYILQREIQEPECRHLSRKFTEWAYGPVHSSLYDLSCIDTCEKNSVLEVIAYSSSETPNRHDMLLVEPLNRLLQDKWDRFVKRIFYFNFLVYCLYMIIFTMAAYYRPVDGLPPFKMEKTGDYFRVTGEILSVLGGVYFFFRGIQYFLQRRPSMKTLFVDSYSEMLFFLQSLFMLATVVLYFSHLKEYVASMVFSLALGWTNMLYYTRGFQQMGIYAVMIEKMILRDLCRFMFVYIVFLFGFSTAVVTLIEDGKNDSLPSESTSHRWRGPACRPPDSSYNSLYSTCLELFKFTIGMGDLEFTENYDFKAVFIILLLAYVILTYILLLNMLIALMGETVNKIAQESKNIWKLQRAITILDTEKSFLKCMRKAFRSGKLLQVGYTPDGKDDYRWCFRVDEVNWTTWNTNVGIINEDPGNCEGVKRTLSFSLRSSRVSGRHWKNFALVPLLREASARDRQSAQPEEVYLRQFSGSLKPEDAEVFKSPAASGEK
EXPERIMENT_DESCRIPTION: allosteric agonists potentiating TRPV1 currents, confirmation, QPatch automated patch clamp, HEK293 cells (AID 602331)
EXPERIMENTAL_CONDITIONS: HEK293-TRPV1 QPatch current potentiation, +100 mV, capsaicin; at 10 µM
Activity calls are given as the source filed them.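 How the source made its calls: active means compound boosting capsaicin-evoked TRPV1 current more than 1.5 times over the capsaicin response; inactive means the rest.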
Hi there, use one of these labels in your reply, thanks! active, inactive

Ask | State the result this test recorded for CC(C)C(=O)Nc1ccc(C(=O)CN2C(=O)NC3(CCOc4ccccc43)C2=O)cc1 (stereo not drawn) .
Reply | inactive

Ask | State the result this test recorded for O=C(COC(=O)c1ccc2c(c1)C(=O)N(Cc1ccncc1)C2=O)Nc1ccccc1[N+](=O)[O-] .
Reply | active

Ask | State the result this test recorded for Cc1csc2c(=O)sc(NC(=O)c3ccc(F)cc3Cl)nc12 .
Reply | inactive
